# target.system: cellular TGF-β R1 ALK5 (Homo sapiens, UniProt P36897)
# Sequence (P36897 34-503): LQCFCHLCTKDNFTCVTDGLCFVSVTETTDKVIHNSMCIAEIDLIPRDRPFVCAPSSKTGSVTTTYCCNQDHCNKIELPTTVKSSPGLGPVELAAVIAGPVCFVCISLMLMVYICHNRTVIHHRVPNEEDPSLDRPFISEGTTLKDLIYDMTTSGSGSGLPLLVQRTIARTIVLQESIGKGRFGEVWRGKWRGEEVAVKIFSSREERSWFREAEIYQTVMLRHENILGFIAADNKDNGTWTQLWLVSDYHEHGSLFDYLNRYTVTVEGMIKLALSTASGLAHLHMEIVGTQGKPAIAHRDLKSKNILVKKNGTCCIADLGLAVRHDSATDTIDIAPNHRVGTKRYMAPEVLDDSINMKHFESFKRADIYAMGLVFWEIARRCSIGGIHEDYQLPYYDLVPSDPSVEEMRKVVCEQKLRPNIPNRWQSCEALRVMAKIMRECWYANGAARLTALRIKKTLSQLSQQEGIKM
# assay.protocol: Cellular inhibition of ALK5 (CellSensor SBE-bla HEK 293T beta-lactamase reporter)
# settings: cellular inhibition of ALK5, SBE-bla HEK 293T cells, TGFb-1 stimulated 5 hours; average where measured in multiple experiments
measured.property: IC50 (µM)

{"structure.as.smiles": "Cc1ccc(F)c(-c2cc(Nc3ccnc4cn(CCCO)nc34)c(C)cn2)n1", "measured.property": "IC50", "reported.measurement": 0.0631}
{"structure.as.smiles": "Cc1ccc(F)c(-c2cc(Nc3ccnc4cn(C)nc34)ccn2)n1", "measured.property": "IC50", "reported.measurement": 0.0398}
{"structure.as.smiles": "CCNC(=O)n1ncc2nccc(Nc3ccnc(-c4cc(Cl)ccc4F)c3)c21", "measured.property": "IC50", "reported.measurement": 0.1}

A. NC(=O)Cn1ncc2nccc(Nc3ccnc(-c4cc(F)ccc4F)c3)c21
B. Fc1ccc(Cl)cc1-c1cc(Nc2ccnc3cnn(CC4CC4)c23)ccn1
Ask: Consider entries A and B . Which has the numerically lower IC50? // output: label of the selected item
Reply: A
(A: 0.158 µM, B: 0.631 µM)
